System: THRa homodimer (NR concentration 90 nM)
Test: PBM binding z-score (relative to random genomic background probes); higher = stronger binding; sequences stand for … in GC…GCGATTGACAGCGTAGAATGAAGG

QUERY_SEQUENCE	PBM binding z-score
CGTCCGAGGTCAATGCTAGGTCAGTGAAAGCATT	2.97
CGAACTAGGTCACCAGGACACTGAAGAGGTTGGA	2.39
AGAATGAGGTTACACGTAGATCAGGGAAGAAAGT	1.12
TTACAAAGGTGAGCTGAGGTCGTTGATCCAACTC	1.73
CAATCTAGGTCAAAGGTCAAAGTCGAGCCAACCA	2.3
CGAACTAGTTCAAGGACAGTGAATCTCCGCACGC	1.47
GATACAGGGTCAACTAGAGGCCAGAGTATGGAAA	0.92
CCGAGTAGGTTACGAGGGGGAATTCAGTGCGAAT	0.0868

###

Reported PBM binding z-score by item:
Tested on: RXRa homodimer (NR concentration 180 nM)
Experiment: PBM binding z-score (relative to random genomic background probes); higher = stronger binding; sequences stand for … in GC…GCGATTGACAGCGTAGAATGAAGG
MEASURED_METRIC: PBM binding z-score

QUERY_SEQUENCE	OBSERVED
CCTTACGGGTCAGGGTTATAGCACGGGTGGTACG	3.87
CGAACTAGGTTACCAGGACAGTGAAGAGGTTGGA	0.367
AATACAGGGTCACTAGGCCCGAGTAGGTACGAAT	5.31
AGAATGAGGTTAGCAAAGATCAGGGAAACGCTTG	1.23
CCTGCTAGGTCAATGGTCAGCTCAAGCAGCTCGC	1.92
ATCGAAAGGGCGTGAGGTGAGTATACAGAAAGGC	1.17
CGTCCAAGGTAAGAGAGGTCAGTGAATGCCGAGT	2.46
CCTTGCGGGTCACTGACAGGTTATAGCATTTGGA	4.49
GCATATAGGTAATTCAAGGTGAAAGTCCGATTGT	0.756
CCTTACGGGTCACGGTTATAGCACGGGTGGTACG	6.44
CGTCCAAGGTCAGATAGGTCAGTGAATGCCGAGT	4.4
TCGAGTAGGTTACGGGGGCATTGAGGGATGAAGA	2.66
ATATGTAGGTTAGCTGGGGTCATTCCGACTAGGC	5.24
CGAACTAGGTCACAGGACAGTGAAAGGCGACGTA	3.27
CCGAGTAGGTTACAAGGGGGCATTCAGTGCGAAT	2.1
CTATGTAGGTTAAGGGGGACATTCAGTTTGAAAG	1.39
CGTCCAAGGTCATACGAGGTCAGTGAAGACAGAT	6.94
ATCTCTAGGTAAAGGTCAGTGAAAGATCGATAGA	4.35
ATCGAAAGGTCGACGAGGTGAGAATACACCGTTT	4.87
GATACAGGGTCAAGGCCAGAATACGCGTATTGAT	5.95
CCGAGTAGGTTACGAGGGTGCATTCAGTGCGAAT	1.18
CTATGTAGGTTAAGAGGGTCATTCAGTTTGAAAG	3.33
CCTGCTCGGTCAATGGTCAGCTAAAGCAGCTCGC	0.053
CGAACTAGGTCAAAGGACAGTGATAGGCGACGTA	3.26
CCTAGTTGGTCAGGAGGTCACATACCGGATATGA	3.92
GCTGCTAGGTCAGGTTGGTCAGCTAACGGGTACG	0.927

###

Quick list: PBM binding z-score per entry.
Tested on: PPARg:RXRa DBDmut IVT, anti-RXR (DBD mutation: RXRa K156A/R161A, NR concentration 270 nM, RXRa partner concentration 90 nM)
Test: PBM binding z-score (relative to random genomic background probes); higher = stronger binding; sequences stand for … in GC…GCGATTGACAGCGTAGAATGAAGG
MEASURED_METRIC: PBM binding z-score

QUERY_SEQUENCE	MEASURED_METRIC	OBSERVED
CGTCCAAGGTCAAGGGCAGTGAAAGAGACTCGAA	PBM binding z-score	2.83
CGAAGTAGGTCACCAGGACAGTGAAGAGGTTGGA	PBM binding z-score	8.22
AGTCCAAGTTCACTAGGTAACGTAAGATTCAGCT	PBM binding z-score	2.21
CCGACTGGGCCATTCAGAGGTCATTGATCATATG	PBM binding z-score	3.29
CGTCAAAGTTCAAGGTAAAGTAACAGAAAGCAGC	PBM binding z-score	0.433
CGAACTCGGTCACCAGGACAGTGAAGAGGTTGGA	PBM binding z-score	4.23
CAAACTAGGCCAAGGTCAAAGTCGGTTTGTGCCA	PBM binding z-score	6.88
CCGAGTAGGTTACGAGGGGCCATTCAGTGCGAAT	PBM binding z-score	4.13
CCTACTGGGCCACGTAAGGTCATTGATTCAGTGA	PBM binding z-score	5.56
TCTCGGAGGTCACGAAGGTCAGAGCTTTCCAGAG	PBM binding z-score	4.48
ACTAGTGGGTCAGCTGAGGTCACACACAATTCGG	PBM binding z-score	6.51
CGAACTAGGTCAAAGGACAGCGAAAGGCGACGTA	PBM binding z-score	8.31
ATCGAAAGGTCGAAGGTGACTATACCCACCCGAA	PBM binding z-score	0.283
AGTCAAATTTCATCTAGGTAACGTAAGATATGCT	PBM binding z-score	0.205
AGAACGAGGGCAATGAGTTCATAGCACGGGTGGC	PBM binding z-score	3.4
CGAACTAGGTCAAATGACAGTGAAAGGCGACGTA	PBM binding z-score	7.89
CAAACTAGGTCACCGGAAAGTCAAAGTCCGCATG	PBM binding z-score	8.88
TCTAGTTGGTCAAAGGTCTCACACTCGAAATGCG	PBM binding z-score	3.11
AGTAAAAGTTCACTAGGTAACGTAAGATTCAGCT	PBM binding z-score	2.43
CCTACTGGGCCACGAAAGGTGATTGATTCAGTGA	PBM binding z-score	5.14
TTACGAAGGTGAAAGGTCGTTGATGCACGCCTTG	PBM binding z-score	2.05
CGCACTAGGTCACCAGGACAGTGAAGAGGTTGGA	PBM binding z-score	8.2
ATATGGAGGTTAGGGTCATTCAGAAAGTAGGGAA	PBM binding z-score	2.21
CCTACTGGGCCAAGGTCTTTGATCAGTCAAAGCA	PBM binding z-score	3.2
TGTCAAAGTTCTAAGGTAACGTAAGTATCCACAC	PBM binding z-score	-0.558
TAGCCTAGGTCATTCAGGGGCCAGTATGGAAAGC	PBM binding z-score	1.58

###

System: LXRa:RXRa (NR concentration 270 nM, RXRa partner concentration 90 nM)
Experiment: PBM binding z-score (relative to random genomic background probes); higher = stronger binding; sequences stand for … in GC…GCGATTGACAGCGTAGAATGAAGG
Recorded PBM binding z-score for the following sequences
MEASURED_METRIC: PBM binding z-score

QUERY_SEQUENCE	OBSERVED
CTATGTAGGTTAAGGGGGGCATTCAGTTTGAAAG	3.64
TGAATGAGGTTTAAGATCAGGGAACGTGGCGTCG	-0.0856
CCTACTGGGCCAAAAAGGCCATTGATGCCGATAA	-0.247
CCTTACGGGTCACTGACAGCTTATAGCATTTGGA	3.38
CCTACTGGGCGATTCAGAGGTCATTGATCATATG	3.68
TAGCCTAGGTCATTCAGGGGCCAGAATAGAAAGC	3.94
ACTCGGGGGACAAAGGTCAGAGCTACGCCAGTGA	5.7
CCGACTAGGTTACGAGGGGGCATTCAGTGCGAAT	6.99
CGAACTAGGTCACCAGGACAGAGAAGAGGTTGGA	2.59
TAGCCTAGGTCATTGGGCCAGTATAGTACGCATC	3.49
CCGATTAGGTTACGAGGGGGCATTCAGTGCGAAT	7.34
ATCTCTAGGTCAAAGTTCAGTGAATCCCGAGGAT	6.34
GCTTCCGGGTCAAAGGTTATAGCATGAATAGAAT	5.48
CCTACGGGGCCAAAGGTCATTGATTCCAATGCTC	5.59
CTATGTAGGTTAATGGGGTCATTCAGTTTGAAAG	5.31
GCTTACGGGTCAAAGGTTATAACATGAATAGAAT	5.95
CCGAGTAGGTTAGGAGGGGGCATTCAGTGCGAAT	4.27
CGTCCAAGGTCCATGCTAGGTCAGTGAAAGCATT	3.49
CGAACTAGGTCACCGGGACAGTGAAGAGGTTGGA	2.78
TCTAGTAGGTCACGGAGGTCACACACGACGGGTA	6.42
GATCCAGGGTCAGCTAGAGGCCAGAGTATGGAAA	2.62
ATATCTAGGTTAGGGTCATTCAGAAAGTAGGGAA	4.26
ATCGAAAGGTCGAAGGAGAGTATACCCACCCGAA	3.28
CCGAGTAGTTTACGAGGGGGCATTCAGTGCGAAT	4.8
CCGAGTAGGTTACGAGCGGGCATTCAGTGCGAAT	7.14
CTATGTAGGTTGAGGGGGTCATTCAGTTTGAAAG	4.82
GCTGCTAGGTCAACTGATGGTGAGCTAAAGCTCG	2.63
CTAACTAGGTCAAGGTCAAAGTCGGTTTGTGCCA	5.3
TCGAGTAGGTTACGGGGCCATTCAGGGATGAAGA	0.505
CGTCCAAGGTCAGAGAGGTCAGTGACTGCCGAGT	5.11
ATATGTAGGTTAGGGTAATTCAGAAAGTAGGGAA	1.22
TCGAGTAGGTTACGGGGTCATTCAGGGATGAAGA	5.46
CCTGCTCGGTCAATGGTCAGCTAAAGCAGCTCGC	0.448
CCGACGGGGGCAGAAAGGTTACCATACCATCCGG	2.96
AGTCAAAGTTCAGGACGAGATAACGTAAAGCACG	3.72
CGAACTAGGTCAAAGGACAGTAAAAGGCGACGTA	2.48
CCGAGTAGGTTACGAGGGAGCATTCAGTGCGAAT	3.55
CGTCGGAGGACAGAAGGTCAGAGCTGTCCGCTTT	1.68
CCGAGTAGGTTAAGAGGGGGCATTCAGTGCGAAT	6.72
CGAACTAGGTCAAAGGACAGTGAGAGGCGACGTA	2.38
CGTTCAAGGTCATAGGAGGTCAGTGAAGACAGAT	7.81
CTATGTAGGTTAAGGAGGTCATTCAGTTTGAAAG	4.84
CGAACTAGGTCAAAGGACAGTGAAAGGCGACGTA	2.54
ACTCGGAGGATAAAGGTCAGAGCTACGCCAGTGA	3.42
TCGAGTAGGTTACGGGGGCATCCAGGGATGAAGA	2.55
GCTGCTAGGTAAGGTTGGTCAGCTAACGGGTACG	-0.495
GGAACGAGGGCAAAGGTGATAGCATCTGTCGACG	1.64
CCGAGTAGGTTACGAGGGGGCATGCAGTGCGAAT	6.78
CTCGAAAGGTCGGTTGAGGTGAGTAAACGGATAA	1.73
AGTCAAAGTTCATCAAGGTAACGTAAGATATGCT	5.78
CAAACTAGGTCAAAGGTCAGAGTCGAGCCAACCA	6.32
